MEASUREMENT_DESCRIPTION: Inhibition of thioredoxin reductase (unknown origin) measured after 5 mins by DTNB reduction assay
Parameters: species or system Homo sapiens
IC50 reference
# output: numeric value plus its unit

Known results for compounds:
# COMPOUND_STRUCTURE, READOUT_VALUE
rows = [
    ("COC(=O)[C@@H]1C[C@]2(O)c3ccccc3N3C(=O)C4(CC4)N([C@@H](OC)c4nc5ccccc5c(=O)n41)[C@H]32", "13 µM"),
    ("C=CC(C)(C)[C@@]12C=C(OC)C(=O)N3[C@@H](C)C(=O)N[C@]31N(O)c1ccccc12", "13 µM"),
    ("C[C@H]1C(=O)N2c3ccccc3[C@@]34C[C@H]5C(=O)N(CN1[C@H]23)[C@@H](O4)c1nc2ccccc2c(=O)n15", "20 µM"),
]

Can you share its IC50? I mean this compound: O=C1[C@@H]2C[C@@]34O[C@@H](c5nc6ccccc6c(=O)n52)N1CN1[C@@H]3N(C(=O)C12CC2)c1ccccc14
12 µM

====

Species on record: Homo sapiens
MEASUREMENT_DESCRIPTION: Inhibition of thioredoxin reductase (unknown origin) at 50 uM measured after 5 mins by DTNB reduction assay relative to control
Recorded inhibition split into classes lower range = under 30%, middle range = from 30% up to 60%, upper range = 60% and over

Worked set:
# COMPOUND_STRUCTURE, CLASS_NAME
measured = [
    ("COc1cc(/C=C/C(=O)CC(=O)/C=C/c2ccc(O)c(OC)c2)ccc1O", "lower range"),
    ("C[C@H]1C(=O)N2c3ccccc3[C@@]34C[C@H]5C(=O)N(CN1[C@H]23)[C@@H](O4)c1nc2ccccc2c(=O)n15", "upper range"),
    ("C[C@H]1C(=O)N2c3ccccc3[C@@]3(O)C[C@H]4C(=O)N[C@H](c5nc6ccccc6c(=O)n54)N1[C@H]23", "middle range"),
]

Categorize the following entry: O=C1N[C@@H]2c3nc4ccccc4c(=O)n3[C@H]1C[C@]1(O)c3ccccc3N3C(=O)C4(CC4)N2[C@H]31
lower range

Categorize the following entry: C[C@@H]1N[C@@H]2N(C1=O)c1ccccc1[C@@]2(O)C[C@H]1C(=O)NCc2nc3ccccc3c(=O)n21
lower range

Categorize the following entry: O=C1NCc2nc3c(O)cccc3c(=O)n2[C@H]1Cc1c[nH]c2ccccc12
middle range

Categorize the following entry: C=CC(C)(C)[C@@]12C=C(OC)C(=O)N3[C@@H](C)C(=O)N[C@]31N(OC)c1ccccc12
lower range

Categorize the following entry: C=CC(C)(C)[C@@]12C=C(OC)C(=O)N3[C@@H](C)C(=O)N[C@]31N(O)c1ccccc12
upper range

Categorize the following entry: COC(=O)[C@@H]1C[C@]2(O)c3ccccc3N3C(=O)C4(CC4)N([C@@H](OC)c4nc5ccccc5c(=O)n41)[C@H]32
upper range

Categorize the following entry: O=C1N[C@H]2O[C@@]3(C[C@@H]1n1c2nc2ccccc2c1=O)c1ccccc1N1C(=O)C2(CC2)N[C@H]13
middle range

Categorize the following entry: CC[C@H](C)[C@H]1C(=O)N2c3ccccc3[C@@]3(O)C[C@H]4C(=O)N[C@H](c5nc6ccccc6c(=O)n54)N1[C@H]23
middle range

Categorize the following entry: O=C1NCc2nc3ccccc3c(=O)n2[C@H]1C[C@@]12OCN3[C@@H]1N(C(=O)C31CC1)c1ccccc12
middle range

Categorize the following entry: CC[C@H](C)[C@@H]1C(=O)N2c3ccccc3[C@@]3(O)C[C@H](n4cnc5ccccc5c4=O)C(=O)N1[C@@H]23
upper range

Categorize the following entry: O=C1[C@@H]2C[C@@]34O[C@@H](c5nc6ccccc6c(=O)n52)N1CN1[C@@H]3N(C(=O)C12CC2)c1ccccc14
upper range

Categorize the following entry: O=C1NCc2nc3ccccc3c(=O)n2[C@H]1C[C@]1(O)c2ccccc2N2C(=O)C3(CC3)N[C@H]21
lower range
